- System: HORSS: barley, including spring and winter (Hordeum vulgare)
- ASSAY NOTES: Post-emergent Test III, herbicidal activity in wheat and barley
- Format: in vivo
- CONDITION SUMMARY: Hordeum vulgare, post-emergence, 504 h; 35 g ai/ha; read-out: Visual Growth Reduction (%) 21 Days After Application HORSS
MEASURED ENDPOINT: pest or weed control at 35 g/ha

The cases that follow already have their pest or weed control at 35 g/ha on record.
| ITEM SMILES | TARGET UNDER TEST | pest or weed control at 35 g/ha |
| --- | --- | --- |
| Nc1c(F)c(-c2ccc(I)cc2)nc(C(=O)O)c1Cl | HORSS: barley, including spring and winter (Hordeum vulgare) | 85 to 94% |
| COC(=O)c1nc(-c2ccc(Br)c(F)c2F)cc(N)c1Cl | HORSS: barley, including spring and winter (Hordeum vulgare) | 0 to 29% |
| Nc1c(F)c(-c2ccc(OC(F)F)cc2)nc(C(=O)O)c1Cl | HORSS: barley, including spring and winter (Hordeum vulgare) | 60 to 74% |

Here is another compound to look at.
Query: Report pest or weed control at 35 g/ha for `Nc1cc(-c2ccc(Br)c(F)c2F)nc(C(=O)O)c1Cl` tested on HORSS: barley, including spring and winter (Hordeum vulgare).
Result: 75 to 84%

###

Measured pest or weed control at 70 g/ha, listed per entry.
- System: Key Grass and Sedge Weeds as well as Grass Crops
- ASSAY NOTES: Post-emergent Test II herbicidal activity (Table 6)
- Format: in vivo
- CONDITION SUMMARY: post-emergence, 336 h, SORVU: grain sorghum (Sorghum vulgare), application rate 70 g ai/ha, read-out: Visual Growth Reduction (%) 14 Days After Application, SORVU

Some entries whose results are on file:
| ITEM SMILES | pest or weed control at 70 g/ha |
| --- | --- |
| COC(=O)c1nc(-c2ccc(I)c(F)c2)nc(N)c1OC | 0 to 29% |
| COC(=O)c1nc(-c2cc(F)c(C#N)cc2F)c(F)c(N)c1Cl | 0 to 29% |
| Nc1cc(-c2ccc(I)c(F)c2)nc(C(=O)O)c1Cl | 45 to 59% |
| COC(=O)c1nc(-c2ccc(Br)cc2)c(Cl)c(N)c1Cl | 85 to 94% |
| C#Cc1ccc(-c2nc(N)c(OC)c(C(=O)O)n2)c(F)c1F | 0 to 29% |

Query: Consider the compound `COC(=O)c1nc(-c2cc(F)ccc2F)c(F)c(N)c1Cl` and give its measured pest or weed control at 70 g/ha.
Result: 0 to 29%

Query: # get_value(readout='pest or weed control at 70 g/ha', item= `C=Cc1c(C(=O)OC)nc(-c2ccc(C#N)cc2)c(F)c1N` )
Result: 0 to 29%

Query: Any idea what pest or weed control at 70 g/ha was measured for `C=Cc1c(N)nc(-c2ccc(C(F)(F)F)c(F)c2)nc1C(=O)O` ?
Result: 60 to 74%

Query: Give its pest or weed control at 70 g/ha value. Item: `Nc1c(F)c(-c2ccc(OC(F)F)c(F)c2)nc(C(=O)O)c1Cl`
Result: 30 to 44%

###

- Test system: LOLSS: ryegrass including, Italian ryegrass (Lolium multiflorum), rigid ryegrass (Lolium rigidum), annual ryegrass (Lolium multiflorum subsp. Gaudini)
- ASSAY NOTES: Post-emergent Test III, herbicidal activity in wheat and barley
- Type: in vivo
- CONDITION SUMMARY: probit analysis, dose for growth reduction of 50 percent, 21 days after application
MEASURED ENDPOINT: GR50 LOLSS (g ai/ha)
Answer with a number only, understood to be in g ai/ha.

The following compounds have reported results that may help.
| ITEM SMILES | MEASURED RESULT |
| --- | --- |
| Nc1c(F)c(-c2ccc(Br)c(F)c2F)nc(C(=O)O)c1Cl | 71 |
| Nc1c(F)c(-c2ccc(OC(F)F)cc2)nc(C(=O)O)c1Cl | 116 |

Query: Would you mind telling me what GR50 LOLSS value was observed for `Nc1c(F)c(-c2ccc(Cl)c(F)c2)nc(C(=O)O)c1Cl` ?
Result: 32

###

Collected pest or weed control at 35 g/ha values appear next to each entry.
- System: KCHSC: kochia (Kochia scoparia)
- ASSAY NOTES: Post-emergent Test III, herbicidal activity in wheat and barley
- Format: in vivo
- CONDITION SUMMARY: Bassia scoparia, post-emergence, 504 h; Table 8; 35 g ai/ha; post-emergent; 21 d; read-out: Visual Growth Reduction (%) 21 Days After Application KCHSC

| ITEM SMILES | pest or weed control at 35 g/ha |
| --- | --- |
| COc1c(N)nc(-c2ccc(Br)c(F)c2)nc1C(=O)O | 95 to 100% |
| Nc1cc(-c2ccc(I)cc2F)nc(C(=O)O)c1Cl | 85 to 94% |

Query: Requested field: pest or weed control at 35 g/ha. Item: `COc1c(N)nc(-c2ccc(I)c(F)c2)nc1C(=O)O`
Result: 45 to 59%

Query: Recorded pest or weed control at 35 g/ha of `COC(=O)c1nc(-c2ccc(I)c(F)c2)c(C)c(N)c1Cl` , please.
Result: 60 to 74%

###

MEASURED ENDPOINT: melting point

In the examples that follow, each entry is paired with its recorded melting point.
| ITEM SMILES | MEASURED RESULT |
| --- | --- |
| C=Cc1c(C(=O)OC)nc(-c2ccc(I)cc2)c(F)c1N | 95 to 96 °C |
| Nc1c(F)c(-c2ccc(I)c(F)c2F)nc(C(=O)O)c1Cl | 155 to 157 °C |
| Cc1ccc(-c2nc(C(=O)O)c(Cl)c(N)c2F)c(F)c1F | 159 °C (dec.) |
| COC(=O)c1nc(-c2ccc(Br)cc2)c(Cl)c(N)c1Cl | 159.6 to 161.1 °C |

Pending compound:
Query: State the recorded melting point for this entry: `COC(=O)c1nc(-c2ccc(C)c(F)c2F)c(F)c(N)c1Cl`
Result: 167 to 168 °C

###

- Tested on: TRZSS: wheat, including spring and winter (Triticum aestivum)
- ASSAY NOTES: Post-emergent Test III, herbicidal activity in wheat and barley
- Assay type: in vivo
- CONDITION SUMMARY: Table 8; dose for 20 percent growth reduction, probit analysis; 21 d
MEASURED ENDPOINT: GR20 TRZSS (g ai/ha)
Numeric answer only, unit g ai/ha assumed.

Query: Entry under review: COC(=O)c1nc(-c2ccc(Br)c(F)c2)nc(N)c1OC [Compound 171] . Reported GR20 TRZSS?
Result: 11

Query: Fill blank: measured GR20 TRZSS of the compound Nc1cc(-c2cc(F)c(Br)cc2F)nc(C(=O)O)c1Cl [Compound 3] is ____.
Result: 1

Query: For the compound Nc1cc(-c2ccc(I)cc2F)nc(C(=O)O)c1Cl [Compound 124] , what GR20 TRZSS is on record?
Result: 1

Query: State the recorded GR20 TRZSS for this entry: Nc1cc(-c2ccc(Br)c(F)c2)nc(C(=O)O)c1Cl [Compound 110]
Result: 1

###

- System: Key Grass and Sedge Weeds as well as Grass Crops
- ASSAY NOTES: Post-emergent Test II herbicidal activity (Table 6)
- Type: in vivo
- CONDITION SUMMARY: post-emergence, 336 h, DIGSA: crabgrass (Digitaria sanguinalis), 70 g ai/ha, read-out: Visual Growth Reduction (%) 14 Days After Application, DIGSA
Below: a set of entries, each annotated with reported pest or weed control at 70 g/ha.

Recorded results for 6 molecules are shown here.
| ITEM SMILES | MEASURED RESULT |
| --- | --- |
| C#Cc1ccc(-c2nc(N)c(OC)c(C(=O)OC)n2)c(F)c1F | 0 to 29% |
| COC(=O)c1nc(-c2ccc(I)cc2)cc(N)c1Cl | 60 to 74% |
| COC(=O)c1nc(-c2ccc(C(F)F)cc2)c(F)c(N)c1Cl | 45 to 59% |
| COC(=O)c1nc(-c2ccc(C(F)F)c(F)c2)cc(N)c1Cl | 45 to 59% |
| COC(=O)c1nc(-c2ccc(Br)cc2F)nc(N)c1OC | 45 to 59% |
| COC(=O)c1nc(-c2ccc(OC(F)F)c(F)c2)c(F)c(N)c1Cl | 45 to 59% |

We next turn to a different molecule, shown below.
Query: Returns the measured pest or weed control at 70 g/ha for the input molecule. Input: `C=Cc1c(C(=O)OC)nc(-c2ccc(Cl)c(F)c2)c(F)c1N`
Result: 0 to 29%

###

Examples of molecules with documented melting point follow.

Observe how each entry below is paired with its result.
| ITEM SMILES | melting point |
| --- | --- |
| COC(=O)c1ccc(-c2nc(C(=O)OC)c(Cl)c(N)c2F)cc1 | 163 to 165 °C |
| Cc1c(-c2ccc(I)cc2)nc(C(=O)O)c(Cl)c1N | 179.5 to 181 °C |
| Nc1c(F)c(-c2ccc(OC(F)F)c(F)c2F)nc(C(=O)O)c1Cl | 113 to 115 °C |
| COC(=O)c1nc(-c2cc(F)c(I)cc2F)cc(N)c1Cl | 142 to 144 °C |
| Nc1cc(-c2cc(F)c(OC(F)F)cc2F)nc(C(=O)O)c1Cl | 167.4 to 170.2 °C |
| COc1c(N)nc(-c2ccc(I)cc2F)nc1C(=O)O | 95 to 98 °C |

Query: Which measured melting point value corresponds to `C#Cc1ccc(-c2nc(N)c(OC)c(C(=O)O)n2)c(F)c1F` ?
Result: 142 to 144 °C

Query: Quick check: melting point of `Nc1c(Cl)c(C(=O)O)nc(-c2ccc(OC(F)F)cc2)c1Cl` ?
Result: 146.3 to 147.6 °C

Query: Find the recorded melting point belonging to `C#Cc1ccc(-c2nc(C(=O)O)c(Cl)c(N)c2F)cc1F` and report it.
Result: 157 to 160 °C (dec.)

Query: What measured melting point goes with `COC(=O)c1nc(-c2ccc(OC(F)(F)F)cc2)c(Cl)c(N)c1Cl` ?
Result: 178.9 to 180.2 °C

Query: Reported melting point, molecule `C=Cc1c(C(=O)O)nc(-c2ccc(Br)cc2)c(F)c1N` : ____
Result: 149 to 151 °C

Query: Look at this molecule and give its reported melting point. `COC(=O)c1nc(-c2cc(F)c(C)cc2F)cc(N)c1Cl`
Result: 137.2 to 138.8 °C

Query: Suppose we examine the molecule `C#Cc1ccc(-c2cc(N)c(Cl)c(C(=O)O)n2)cc1` ; what melting point value has been reported?
Result: 204.2 to 205.9 °C

Query: Need melting point of `COC(=O)c1nc(-c2ccc(OC(F)(F)F)cc2)nc(N)c1OC` , thanks.
Result: 122 to 123.6 °C

Query: Which measured melting point value corresponds to `COC(=O)c1nc(-c2ccc(I)cc2F)cc(N)c1Cl` ?
Result: 139.8 to 141.2 °C

Query: So what's the measured melting point for this one? `COC(=O)c1nc(-c2ccc(Br)cc2F)c(F)c(N)c1Cl`
Result: 146 to 148 °C
